Listing of entries alongside the reported IC50.
molecular target: soluble VLA-4 (Homo sapiens, UniProt P05556+P13612); assay: Inhibition of binding between CS-1 peptide and soluble VLA-4; details: absorbance at 490 nm, read-out: Inhibitory activity (IC50: nM)
Sequence (P13612 35-977 limits assumed): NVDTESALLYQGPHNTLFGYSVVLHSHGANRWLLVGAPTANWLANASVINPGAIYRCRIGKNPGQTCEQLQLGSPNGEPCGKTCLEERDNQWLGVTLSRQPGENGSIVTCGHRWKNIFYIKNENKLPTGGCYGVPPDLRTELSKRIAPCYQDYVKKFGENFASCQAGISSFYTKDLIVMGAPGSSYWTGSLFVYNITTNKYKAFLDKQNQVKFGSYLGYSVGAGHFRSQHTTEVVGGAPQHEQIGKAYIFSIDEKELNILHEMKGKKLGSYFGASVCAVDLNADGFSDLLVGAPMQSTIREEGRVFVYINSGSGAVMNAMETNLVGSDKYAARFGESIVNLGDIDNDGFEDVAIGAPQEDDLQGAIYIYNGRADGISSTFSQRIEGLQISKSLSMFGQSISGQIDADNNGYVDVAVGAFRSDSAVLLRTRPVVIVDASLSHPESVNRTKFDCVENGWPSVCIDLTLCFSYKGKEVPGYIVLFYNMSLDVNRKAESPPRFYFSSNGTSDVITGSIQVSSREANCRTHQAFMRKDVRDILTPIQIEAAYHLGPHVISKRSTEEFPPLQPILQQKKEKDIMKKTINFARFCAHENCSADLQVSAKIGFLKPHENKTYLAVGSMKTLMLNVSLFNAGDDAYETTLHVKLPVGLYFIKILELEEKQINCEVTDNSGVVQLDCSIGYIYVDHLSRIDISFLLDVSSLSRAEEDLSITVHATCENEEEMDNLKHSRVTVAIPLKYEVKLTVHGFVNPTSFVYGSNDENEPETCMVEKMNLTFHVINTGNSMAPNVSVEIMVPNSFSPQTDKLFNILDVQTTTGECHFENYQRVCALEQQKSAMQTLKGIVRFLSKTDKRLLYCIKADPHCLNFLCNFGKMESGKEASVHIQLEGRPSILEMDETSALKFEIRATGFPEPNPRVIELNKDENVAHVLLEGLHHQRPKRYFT
Sequence (P05556 21-728 limits assumed): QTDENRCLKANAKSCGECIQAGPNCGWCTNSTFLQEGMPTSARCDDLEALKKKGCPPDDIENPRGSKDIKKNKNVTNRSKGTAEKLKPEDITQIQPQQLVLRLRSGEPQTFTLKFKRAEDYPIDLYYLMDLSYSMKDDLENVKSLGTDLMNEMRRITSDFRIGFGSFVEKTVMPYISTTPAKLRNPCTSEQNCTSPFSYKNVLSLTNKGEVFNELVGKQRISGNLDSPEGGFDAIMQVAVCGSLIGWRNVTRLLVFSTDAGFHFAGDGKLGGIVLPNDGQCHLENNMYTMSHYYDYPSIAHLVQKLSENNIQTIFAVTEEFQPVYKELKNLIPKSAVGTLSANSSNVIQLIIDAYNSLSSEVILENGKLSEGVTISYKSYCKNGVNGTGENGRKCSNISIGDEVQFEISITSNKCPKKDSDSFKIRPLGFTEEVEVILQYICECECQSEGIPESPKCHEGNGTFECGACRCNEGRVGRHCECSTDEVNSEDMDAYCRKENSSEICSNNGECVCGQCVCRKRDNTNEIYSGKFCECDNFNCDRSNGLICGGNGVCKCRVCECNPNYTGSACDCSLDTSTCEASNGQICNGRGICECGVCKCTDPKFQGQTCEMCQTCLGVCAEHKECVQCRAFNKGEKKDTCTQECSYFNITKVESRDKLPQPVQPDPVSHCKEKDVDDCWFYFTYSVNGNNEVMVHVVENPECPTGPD
EXPERIMENTAL_ENDPOINT: IC50

[
  {
    "COMPOUND": "CC(=O)N1CCCCC1C(=O)NC(CNC(=O)N1CCC2(CC1)C(=O)NCN2c1ccccc1)C(=O)O (stereo not drawn)",
    "EXPERIMENTAL_ENDPOINT": "IC50",
    "RESULT": "65 nM"
  },
  {
    "COMPOUND": "CC(=O)N1CCC[C@H]1C(=O)NC(CNC(=O)N1CCC2(CC1)C(=O)NCN2c1ccccc1)C(=O)O (stereo partly drawn)",
    "EXPERIMENTAL_ENDPOINT": "IC50",
    "RESULT": "110 nM"
  },
  {
    "COMPOUND": "Cc1cccc(Cl)c1S(=O)(=O)NC(CNC(=O)N1CCC2(CC1)C(=O)N(C)CN2c1ccccc1)C(=O)O (stereo not drawn)",
    "EXPERIMENTAL_ENDPOINT": "IC50",
    "RESULT": "110 nM"
  }
]
